Test system: Rabbits
Conditions: female, Kbs: JW, rabbit, in vivo, 24 h
MEASURED PROPERTY: Simple primary skin irritation index
Answer with a number only.

| MOLECULE | EXPERIMENTAL SYSTEM | Simple primary skin irritation index |
| --- | --- | --- |
| CCOCCNC(=O)c1nc(N[C@H]2CCCC[C@H]2NC(=N)COC)c2cc(C)ccc2n1.Cl.Cl [Example 95] | Rabbits | 0.7 |
| COCCNC(=O)c1nc(N[C@H]2CCCC[C@H]2NC(C)=N)c2cc(C)ccc2n1.Cl.Cl [Example 1] | Rabbits | 0.3 |

Query (molecule): Cc1ccc2nc(C(=O)NC(C)C)nc(N[C@H]3CCCC[C@H]3NC(=N)N)c2c1.Cl.Cl [Comparative control E, reference compound] ; field requested: Simple primary skin irritation index
3.6

Query (molecule): CON=C(N)N[C@@H]1CCCC[C@@H]1Nc1nc(C(=O)NCC(C)C)nc2ccc(C)cc12.Cl.Cl [Example 211] ; field requested: Simple primary skin irritation index
1.5

Query (molecule): CCOCCNC(=O)c1nc(N[C@H]2CCCC[C@H]2NC(=N)N)c2cc(C)ccc2n1.Cl.Cl [Comparative control C, reference compound] ; field requested: Simple primary skin irritation index
2.3

Query (molecule): COCCNC(=O)c1nc(N[C@H]2CCCC[C@H]2NC(N)=NOC)c2cc(C)ccc2n1.Cl.Cl [Example 208] ; field requested: Simple primary skin irritation index
0.2

Query (molecule): COCCNC(=O)c1nc(N[C@H]2CCCC[C@H]2NC(=N)N)c2cc(C)ccc2n1.Cl.Cl [Comparative control F, reference compound] ; field requested: Simple primary skin irritation index
2.2

Query (molecule): COC(C)(C)C(=N)N[C@@H]1CCCC[C@@H]1Nc1nc(C(=O)NCC(C)(C)C)nc2ccc(C)cc12.Cl.Cl [Example 19] ; field requested: Simple primary skin irritation index
0.4

Query (molecule): COCCCNC(=O)c1nc(N[C@H]2CCCC[C@H]2NC(=N)N)c2cc(C)ccc2n1.Cl.Cl [Comparative control D, reference compound] ; field requested: Simple primary skin irritation index
2.0

Query (molecule): Cc1ccc2nc(C(=O)NCC(C)C)nc(N[C@H]3CCCC[C@H]3NC(N)=NO)c2c1.Cl.Cl [Example 212] ; field requested: Simple primary skin irritation index
0.8

----------
System: Rabbits
Conditions: female, Kbs: JW, rabbit, in vivo, 24 h
Parameter: Simple primary skin irritation index. Scope: all listed entries.
Answer with a number only.

Worked set:
| COMPOUND | Simple primary skin irritation index |
| --- | --- |
| Cc1ccc2nc(C(=O)NCC(C)C)nc(N[C@H]3CCCC[C@H]3NC(=N)N)c2c1.Cl.Cl [Comparative control A] | 1.8 |
| CCOCCNC(=O)c1nc(N[C@H]2CCCC[C@H]2NC(C)=N)c2cc(C)ccc2n1.Cl.Cl [Example 94] | 1.0 |
| COCCCNC(=O)c1nc(N[C@H]2CCCC[C@H]2NC(C)=N)c2cc(C)ccc2n1.Cl.Cl [Example 92] | 0.0 |

Query (compound): COCCCNC(=O)c1nc(N[C@H]2CCCC[C@H]2NC(N)=NO)c2cc(C)ccc2n1.Cl.Cl [Example 240] ; field requested: Simple primary skin irritation index
1.0

Query (compound): CON(C)C(=N)N[C@@H]1CCCC[C@@H]1Nc1nc(C(=O)NCC(C)C)nc2ccc(C)cc12.Cl.Cl [Example 236] ; field requested: Simple primary skin irritation index
1.6

Query (compound): COCCCNC(=O)c1nc(N[C@H]2CCCC[C@H]2NC(=N)CCOC)c2cc(C)ccc2n1.Cl.Cl [Example 35] ; field requested: Simple primary skin irritation index
1.5

Query (compound): Cc1ccc2nc(C(=O)NCC(C)C)nc(N[C@H]3CCCC[C@H]3NC(=N)C(C)(C)O)c2c1.Cl.Cl [Example 60] ; field requested: Simple primary skin irritation index
1.0

Query (compound): COCCCNC(=O)c1nc(N[C@H]2CCCC[C@H]2NC(N)=NOC)c2cc(C)ccc2n1.Cl.Cl [Example 239] ; field requested: Simple primary skin irritation index
1.0

Query (compound): Cc1ccc2nc(C(=O)NC(C)C)nc(N[C@H]3CCCC[C@H]3NC(=N)CCO)c2c1.Cl.Cl [Example 58] ; field requested: Simple primary skin irritation index
0.4
